# subject_of_test: HCoV-229E 3CL^pro (Human coronavirus 229E, UniProt P0C6X1)
# Sequence (P0C6X1 2966-3267): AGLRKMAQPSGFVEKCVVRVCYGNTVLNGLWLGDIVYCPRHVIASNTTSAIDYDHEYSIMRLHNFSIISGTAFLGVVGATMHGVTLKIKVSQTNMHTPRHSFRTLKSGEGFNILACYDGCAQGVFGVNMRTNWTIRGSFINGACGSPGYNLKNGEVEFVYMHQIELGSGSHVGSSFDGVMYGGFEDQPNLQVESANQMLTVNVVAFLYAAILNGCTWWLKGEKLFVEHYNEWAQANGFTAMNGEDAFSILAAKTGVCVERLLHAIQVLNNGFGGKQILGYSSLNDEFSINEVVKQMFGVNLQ
# protocol_description: biochemical

molecule | IC50
CCCCCCCCCCCCCCCC[N+](C)(C)CCN(Cc1ccc(OC)cc1)c1ncccn1 [Thonzonium bromide] | 6.47 µM

###

# subject_of_test: SARS-CoV-2 3CL^pro (Severe acute respiratory syndrome coronavirus 2)

compound | unit_symbol | result_comparator | IC50
C[N+](C)(C)CCCCCCCCCC[N+](C)(C)C [Decamethonium bromide] | µM | > | 100
CCCCCCCCCCCCCCCC[N+](C)(C)Cc1ccccc1 [Cetalkonium chloride] | µM | = | 3.5
CCCCCCCCOc1ccccc1C(=O)Nc1ccc(C(=O)OCC[N+](C)(CC)CC)cc1 [Otilonium bromide] | µM | = | 27.7
CCCCCCCCCCCCCCCC[N+](C)(C)C [Cetrimonium bromide] | µM | = | 12.8
CCCCCCCCCCCC[N+](C)(C)CCOc1ccccc1 [Domiphen bromide] | µM | = | 45.9
